- target_desc: Bromodomain testis-specific protein (Homo sapiens, UniProt Q58F21, Y309A)
- experimental_protocol: Displacement of Alexa Fluor 647 labelled I-BET762 from N-terminal His6-tagged human BRDT BD1 (1 to 397 residues)/BD2 Y309A mutant expressed in Escherichia coli after 1 hr by TR-FRET assay
measure: pIC50
Formally, pIC50 is defined as -log10 of the concentration c, with c in mol/L.

COCc1nc2cnc3cc(-c4c(C)noc4C)c(OC)cc3c2n1[C@H](C)c1ccccc1 | 7.60

Now consider a different compound.
Task item: Report pIC50, nothing else, for this compound: COc1cc2c(cc1-c1c(C)noc1C)ncc1[nH]c(=O)n([C@H](C)c3ccccn3)c12
Reply: 6.90

###

- experimental_protocol: Cmax in CD1 mouse at 10 mg/kg, ip measured up to 12 hrs by reverse-phase LC-MS/MS analysis
- Assay type: ADME, organism-based
- Parameters: dose 10 mg/kg, route intraperitoneal
- stated_conditions: in vivo
measure: Cmax (nM)
Kindly answer with a numeric value in nM, unit omitted.

Task item: Using known records, supply Cmax for COCc1nc2cnc3cc(-c4c(C)noc4C)c(OC[C@H]4CCNC4)cc3c2n1[C@H](C)c1ccccc1
Reply: 2400

###

- target_desc: Bromodomain-containing protein 2 (Homo sapiens)
- Sequence (P25440 whole entry): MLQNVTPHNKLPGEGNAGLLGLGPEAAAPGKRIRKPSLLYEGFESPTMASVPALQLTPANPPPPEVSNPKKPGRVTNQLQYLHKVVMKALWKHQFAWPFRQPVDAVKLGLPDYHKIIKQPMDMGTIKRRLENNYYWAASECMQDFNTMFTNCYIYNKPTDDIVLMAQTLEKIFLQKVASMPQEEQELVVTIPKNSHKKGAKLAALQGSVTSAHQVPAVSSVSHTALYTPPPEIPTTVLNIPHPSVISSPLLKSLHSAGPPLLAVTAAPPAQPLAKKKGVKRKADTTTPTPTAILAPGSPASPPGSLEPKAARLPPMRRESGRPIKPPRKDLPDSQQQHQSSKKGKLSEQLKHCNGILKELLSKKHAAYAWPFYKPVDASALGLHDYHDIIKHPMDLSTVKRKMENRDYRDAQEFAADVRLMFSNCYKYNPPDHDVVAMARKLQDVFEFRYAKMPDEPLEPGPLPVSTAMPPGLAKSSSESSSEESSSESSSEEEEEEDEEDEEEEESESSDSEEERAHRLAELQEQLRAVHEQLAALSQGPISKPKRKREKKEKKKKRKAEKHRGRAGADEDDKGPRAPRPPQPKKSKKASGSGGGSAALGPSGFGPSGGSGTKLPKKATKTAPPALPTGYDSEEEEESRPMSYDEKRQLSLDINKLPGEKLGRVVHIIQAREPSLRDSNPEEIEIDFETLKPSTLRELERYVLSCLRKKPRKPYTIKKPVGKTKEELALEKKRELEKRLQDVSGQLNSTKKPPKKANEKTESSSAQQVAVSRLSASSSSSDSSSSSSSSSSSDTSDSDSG
- experimental_protocol: Binding affinity to BRD2 BD2 (unknown origin) by isothermal titration calorimetric method
pKd: −log10 of the molar value.
measure: pKd

Task item: For Bromodomain-containing protein 2 (Homo sapiens), give pKd of the listed compound: CC(=O)NCCCCn1c2c(c3ccccc31)C(=O)NCC2
Reply: < 3.52

###

- experimental_protocol: Terminal half life in CD1 mouse at 10 mg/kg, ip measured after 7 to 24 hrs by reverse-phase LC-MS/MS analysis
- Type: ADME, organism-based
- stated_conditions: in vivo, read-out: beta t1/2 (converted)
measure: half-life (h)
Give just the numeric value; h need not be written.

Task item: Check the records and state half-life for COCc1nc2cnc3cc(-c4c(C)noc4C)c(OC[C@H]4CCNC4)cc3c2n1[C@H](C)c1ccccc1
Reply: 8.2

###

- Test system: Blood
- experimental_protocol: Antiinflammatory activity in human whole blood assessed as reduction in LPS-induced MCP1 production preincubated for 30 mins followed by LPS challenge and measured after overnight incubation by mesoscale assay
- Assay type: functional, tissue-based
measure: pIC50
Formally, pIC50 is defined as -log10 of the concentration c, with c in mol/L.

COc1ccc2c(c1)C(c1ccc(Cl)cc1)=N[C@@H](NC(=O)OCc1ccccc1)c1nnc(C)n1-2 | 6.70

Could you now look at the following compound, please?
Task item: Lab note: record pIC50 of COc1cc2c(cc1-c1c(C)noc1C)ncc1[nH]c(=O)n([C@H](C)c3ccccn3)c12 tested on Blood.
Reply: 6.70

###

Attribute: IC50
- target_desc: Bromodomain-containing protein 4 (Homo sapiens, UniProt O60885, Y390A)
- experimental_protocol: Displacement of Alexa Fluor 647 labelled I-BET762 from N-terminal His6-tagged human BRD4 BD1 (1 to 477 residues)/BD2 Y390A mutant expressed in Escherichia coli after 1 hr by TR-FRET assay
Respond numerically; units are µM and should not be typed.

Below, each entry is followed by its recorded IC50 result.
Cc1noc(C)c1-c1cc2ncc3c(c2cc1OC[C@@H]1CCNC1)n(C(C)c1ccccn1)c(=O)n3C (mixture of isomers) | 0.794
Cc1noc(C)c1-c1cc2ncc3c(c2cc1OCCCN(C)C)n([C@H](C)c1ccccn1)c(=O)n3C | 1
Cc1noc(C)c1-c1cc2ncc3c(c2cc1O[C@@H]1CCNC1)n([C@H](C)c1ccccn1)c(=O)n3C | 1.26
CC(=O)NCCCOc1cc2c(cc1-c1c(C)noc1C)ncc1c2n(C(C)c2ccccn2)c(=O)n1C (stereo unspecified) | 0.794

Task item: Report IC50, nothing else, for this compound: Cc1noc(C)c1-c1cc2ncc3c(c2cc1OCC1CCNCC1)n(C(C)c1ccccn1)c(=O)n3C (stereo unspecified)
Reply: 0.794

###

- target_desc: Bromodomain-containing protein 4 (Homo sapiens, UniProt O60885, Y97A)
- experimental_protocol: Displacement of Alexa Fluor 647 labelled I-BET762 from N-terminal His6-tagged human BRD4 BD2 (1 to 477 residues)/BD1 Y97A mutant expressed in Escherichia coli after 1 hr by TR-FRET assay
pIC50: −log10 of the molar value.
compounds and their reported pIC50

These solved cases illustrate the format of a correct answer.
Cc1noc(C)c1-c1cc2ncc3c(c2cc1C(=O)O)n(C(C)c1ccccn1)c(=O)n3C (centres undefined) | < 4.30
Cc1noc(C)c1-c1cc2ncc3c(c2cc1OCCN(C)C)n([C@H](C)c1ccccn1)c(=O)n3C | < 4.30
Cc1noc(C)c1-c1cc2ncc3c(c2cc1CC(=O)O)n(C(C)c1ccccn1)c(=O)n3C (centres undefined) | < 4.30

Please find the next compound below.
Task item: Fill in pIC50 for CNCCCOc1cc2c(cc1-c1c(C)noc1C)ncc1c2n(C(C)c2ccccn2)c(=O)n1C (centres undefined) tested with Bromodomain-containing protein 4 (Homo sapiens, UniProt O60885, Y97A).
Reply: 4.60

###

- target_desc: Bromodomain-containing protein 4 (Homo sapiens, UniProt O60885, Y97A)
- experimental_protocol: Displacement of Alexa Fluor 647 labelled I-BET762 from N-terminal His6-tagged human BRD4 BD2 (1 to 477 residues)/BD1 Y97A mutant expressed in Escherichia coli after 1 hr by TR-FRET assay
IC50 values by entry

Previously resolved entries follow.
Cc1noc(C)c1-c1cc2ncc3c(c2cc1O[C@H]1CCNC1)n(C(C)c1ccccn1)c(=O)n3C (mixture of isomers) | > 50.1 µM
Cc1noc(C)c1-c1cc2ncc3c(c2cc1OCCCN(C)C)n([C@H](C)c1ccccn1)c(=O)n3C | > 50.1 µM

Next up:
Task item: Please report IC50 for the following compound: Cc1noc(C)c1-c1cc2ncc3c(c2cc1O[C@H]1C[C@@H](N)C1)n(C(C)c1ccccn1)c(=O)n3C (stereo partly drawn)
Reply: 10 µM
